Target: T1, glucagon receptor (UniProt P47871 26-477, limits assumed)
T1 construct: whole, on cells; also called GR; Glucagon
T1 sequence (P47871 26-477 limits assumed): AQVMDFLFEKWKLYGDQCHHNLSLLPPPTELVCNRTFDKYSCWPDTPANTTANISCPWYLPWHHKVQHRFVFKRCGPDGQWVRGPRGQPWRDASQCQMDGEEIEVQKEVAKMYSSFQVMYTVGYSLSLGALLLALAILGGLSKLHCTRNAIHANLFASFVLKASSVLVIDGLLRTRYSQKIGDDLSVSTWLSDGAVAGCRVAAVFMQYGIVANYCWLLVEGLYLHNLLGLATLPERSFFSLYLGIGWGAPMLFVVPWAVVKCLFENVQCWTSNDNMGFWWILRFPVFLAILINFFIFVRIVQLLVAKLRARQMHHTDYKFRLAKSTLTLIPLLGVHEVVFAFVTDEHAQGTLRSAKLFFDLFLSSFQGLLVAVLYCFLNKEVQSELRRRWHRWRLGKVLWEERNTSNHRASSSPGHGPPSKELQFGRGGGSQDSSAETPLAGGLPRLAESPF
Test: receptor binding, method not described
Square brackets hold non-standard residues; d marks the D form. Ends that are not written are not given here. MCA = alpha-methylhydrocinnamic acid (2-methyl-3-phenylpropanoic acid); PhLac = O=C(O)[C@@H](O)Cc1ccccc1
IC50 strictly less than 400 nM = true. Otherwise false.

Input: Determine if C(PEG 3.4 kDa)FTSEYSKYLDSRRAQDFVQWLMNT-NH2 (also: dimer: two chains joined by 3.4 kDa PEG at Cys5) [3.4kDaPEG-dimer[C5, E9]Glucagon(aa5-29)-NH2] shows IC50 strictly lower than 400 nM.
Output: false

Input: Record C(PEG 20 kDa)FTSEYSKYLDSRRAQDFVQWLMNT-NH2 [[C5(20kDaPEG), E9]Glucagon(aa5-29)-NH2] : is its IC50 strictly below 400 nM?
Output: true

Input: Find out if reported IC50 for [MCA]TSEYSKYLDSRRAQDFVC(maleimido methoxyPEG 20 kDa)WLMNT-NH2 [[MCA6, E9, C24(20kDaPEG)]Glucagon(aa6-29)-NH2] is less than 400 nM
Output: true

Input: hey, is IC50 for C(PEG 5 kDa)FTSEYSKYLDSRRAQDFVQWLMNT-NH2 [[C5(5kDaPEG), E9]Glucagon(aa5-29)-NH2] lower than 400 nM or not?
Output: false

Input: For this binder, is IC50 lower than 400 nM? [PhLac]TSEYSKYLDSRRAQDFVC(maleimido methoxyPEG 20 kDa)WLMNT-NH2 [[PLA6, E9, C24(20kDaPEG)]Glucagon(aa6-29)-NH2]
Output: true
